B1: TPR t1 (parent)
chain: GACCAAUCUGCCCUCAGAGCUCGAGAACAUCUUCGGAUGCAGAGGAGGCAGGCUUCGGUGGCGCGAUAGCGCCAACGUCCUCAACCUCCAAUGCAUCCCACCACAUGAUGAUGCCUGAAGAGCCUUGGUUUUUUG

Variants of: B1
Experiment: polymerase ribozyme fitness, log enrichment relative to wild type (log ratio); higher = more active; in vitro selection for triplet polymerase activity
The following variants are listed with their measured polymerase ribozyme fitness (log ratio) values.
Number only, please.

Worked examples follow.
# Construct Sequence, polymerase ribozyme fitness (log ratio)
rows = [
    ("GACCAAUCUGCCCUCAGAGCUCGAGAACAUCUUCGGAUGCAGAGGAGGCAGGCUUCGGUAGCACGAUAGCGCCAACGUCCUCAACCUCCAAUGCAUCCCACCACAUGAUGAUGCCUGAAGAGCCUUGGUUUUUUG [G60A G63A]", -2.96),
    ("GACCAAUCUGCCCCCAGAGCUCGAGAACAUCUUCGGAUGCAGAGGACGCAGGCUUCGGUGGCGCGAUAGCGCCAACGUCCUCAACCUCCAAUGCAUCCCACCACAUGAUGAUGCCUGAAGAGCCUUGGUUUUUUG [U14C G47C]", -2.99),
]

Turning to the following variant.
Problem: Which measured polymerase ribozyme fitness (log ratio) value corresponds to GACCAAUCUGCCCUCAGAGCUCGAGAACAUCUUCGGAUGCAGUGGAGGCAGGCUUGGGUGGCGCGAUAGCGCCAACGUCCUCAACCUCCAAUGCAUCCCACCACAUGAUGAUGUCUGAAGAGCCUUGGUUUUUUG [A43U C56G C114U] ?
Solution: -2.92

The reported measurements were obtained from the RNAGym collection of RNA variant scans (doi:10.1073/pnas.2313332121).
